Tested on: UACC-62
Test: NCI tumour cell line growth inhibition, 48 h
The source made the active and inactive calls. Cut-off read from the data, not from the text of the source: active = GI50 up to about 1.1 µM and inactive = higher.
reported_metric: GI50

Given the entry Cc1ccc(S(=O)(=O)NNC(=S)Nc2cccc3ccccc23)cc1 , what GI50 was observed with UACC-62? 32.1 µM (inactive)

Would you mind doing OCc1cccc(Nc2nc(O)c3[nH]cnc3n2)c1 as well? > 100 µM (inactive)

Would you mind doing CCOC(=O)Cc1csc(Nc2ccccc2[N+](=O)[O-])n1 as well? > 100 µM (inactive)

Would you mind doing CC(=O)NC(Cc1ccc(O)cc1)C(=O)O (centres undefined) as well? > 100 µM (inactive)

Would you mind doing C=C=C(Sc1ccccc1)C(C)(C)O as well? > 100 µM (inactive)

Would you mind doing Cc1cc(-c2nc3cc(O)ccc3s2)ccc1N as well? 19.9 µM (inactive)

Would you mind doing CCCCN1C(=O)N(c2ccc(OCC)cc2)C2N(CCCC)C1C(C)(C)C2(C)C (centres undefined) as well? 16.9 µM (inactive)

Would you mind doing CC(C)CC(CNC(Cc1ccc(Cl)cc1)C(N)=O)NC(=O)C(Cc1c[nH]cn1)NC(=O)CNC(=O)C(NC(=O)C(C)NC(=O)C(Cc1c[nH]c2ccccc12)NC(=O)C(CCC(=O)O)NC(=O)C(N)Cc1ccccc1)C(C)C (centres undefined) as well? > 133 µM (inactive)

Would you mind doing CC(=O)c1ccc2c3c1O[C@H]1c4[nH]c5ccccc5c4C[C@@]4(O)[C@@H](C2)N(CC2CC2)CC[C@]314 as well? 16.5 µM (inactive)

---

Could you please report measured GI50 for the items listed next?
System: HOP-62
Assay: NCI tumour cell line growth inhibition, 48 h
Activity calls are given as the source filed them. Cut-off read from the data, not from the text of the source: active = GI50 up to about 1.1 µM and inactive = higher.

// GI50 lookup, key: O=C(Nc1cccc(C(F)(F)F)c1)c1cc(Br)cc(Br)c1O 5.22 µM (inactive)

Would you mind doing COc1ccc(C(=O)/C=C/c2ccc(OCCCCCCCCCCOc3ccc(/C=C/C(=O)c4ccc(OC)cc4)cc3)cc2)cc1 as well? > 100 µM (inactive)

Would you mind doing CCOC(=O)COc1ccc2c(C)cc(=O)oc2c1 as well? > 100 µM (inactive)

Would you mind doing COc1cc(C(=O)/C=C/c2ccc(OCC#N)cc2)cc(OC)c1OC as well? 22.1 µM (inactive)

Would you mind doing CC(=O)OC1C(Oc2c(C)cc3c(c2O)[C@@H](C)CC[C@@H]3[C@@H](C)CCC=C(C)C)OCC(O)C1O (stereo not given in full) as well? 17.3 µM (inactive)

---

Could you please report measured GI50 for the items listed next?
Tested on: KM12
Assay: NCI tumour cell line growth inhibition, 48 h
Calls of active or inactive are those of the source. Rule as the data show it: active = GI50 up to about 1.1 µM and inactive = higher.

// GI50 lookup, key: O=C(CSc1nnc(Cc2ccccc2)o1)Nc1ccc(Cl)cc1Cl > 100 µM (inactive)

Would you mind doing NC(N)NCCCc1cn2c(n1)C1CCCN1C(=O)C2Cc1ccccc1 (stereo unspecified) as well? > 100 µM (inactive)

Would you mind doing CN(O)C(=O)CCC(NC(=O)CCC(N)C(=O)O)C(=O)NCC(=O)O (stereo unspecified) as well? > 100 µM (inactive)

Would you mind doing S=C(N1CCN(c2cccc(Cl)c2)CC1)N1CCN(c2cccc(Cl)c2)CC1 as well? 24.4 µM (inactive)

Would you mind doing O=[N+]([O-])c1cccc(/C=N/C23CC4CC(CC(C4)C2)C3)c1 as well? > 100 µM (inactive)

Would you mind doing COc1ccc(C(=O)/C=C/c2ccc(OCC(=O)O)cc2)cc1 as well? 51.5 µM (inactive)

Where do these numbers come from? They come from ChEMBL document CHEMBL1201862.
